tested on: EGFR T790M/L858R Ba/F3 cell line; test: Ba/F3 cell proliferation (MTS assay), EGFR T790M/L858R; format: cell-based, murine; conditions: read-out: Ba/F3 cellular activity (EC50) T790M/L858R + Cetuximab (1 μg/mL); presence of 1 μg/mL cetuximab
READOUT: EC50

What value of EC50 has been reported for the following compound? CN1CCC(n2cc(-c3ccc4c(c3)C(=O)N(Cc3cccc(Cl)c3)c3cc(F)ccc3N4)cn2)CC1 ≥ 0.75 µM

Recorded EC50 for O=C1c2cc(-c3ccc4[nH]ccc4c3)ccc2Nc2ccc(F)cc2N1Cc1cccnc1 , please? ≥ 0.75 µM

Bench note: what EC50 did O=C1c2cc(-c3ccc(N4CCNCC4)cc3)ccc2Nc2ccccc2N1Cc1ccccc1 show? 0.25 to 0.5 µM

// query EC50 value for entry O=C1c2cc(-c3ccc(N4CCNCC4)cc3)ccc2Nc2ccc(F)cc2N1Cc1nccs1 ≥ 0.75 µM

Reported EC50, compound O=C1c2cc(-c3ccc4[nH]ccc4c3)ccc2Nc2ccc(F)cc2N1Cc1nccs1 : ____ ≥ 0.75 µM

Reference source: patent US11584746B2
